Measured growth accompanies every entry in the list below.
# Tested on: OVCAR-5 ovarian
# Experimental Details: NCI-60 one-dose screen, 48 h (100 = growth as untreated, 0 = no growth, -100 = all killed)
# Study Conditions: 10 µM unless noted
About 83,000 compounds went through this panel and 20% of them were active in at least one assay; those are over-represented in the sample as a whole. Activity calls are given as the source filed them. The calls were made as follows: active = growth percent below 10; inactive = the rest.
Experimental Readout: growth

Compound	Experimental Readout	Result
COc1cccc(-c2cc(-c3cccc(Cl)c3)c(C#N)c(=O)[nH]2)c1	growth	96.7% (inactive)
CCN1CCN(CC(=O)Nc2nc3ccc(NCc4ccc(F)cc4)cc3s2)CC1	growth	94.8% (inactive)
O=C1Nc2ccccc2C1(c1c[nH]c2ccccc12)c1c[nH]c2ccccc12	growth	65.4% (inactive)
C=CC(=O)Nc1ccc(Nc2nccc(-c3ccc(N4CCCC4)c(C#N)c3)n2)cc1	growth	73.4% (inactive)
CN1C(=O)/C(=C2\SC(=Nc3ccccc3)N(Nc3ccccc3)C2=O)c2ccccc21	growth	104% (inactive)
C=C(C)[C@@H]1CCC[C@]2(C(=O)N3CCN(C)CC3)CC[C@]3(C)[C@@H](CC[C@@H]4[C@@]5(C)CC/C(=N\NC(=O)c6ccncc6)C(C)(C)[C@@H]5CC[C@]43C)[C@@H]12	growth	80.1% (inactive)
CCOC(=O)C1=C(C)/C(=C\c2[nH]c(C)c(C(=O)OCC)c2C)N=C1C	growth	97.8% (inactive)
CCOC(=O)c1c(C)nc2c(c1N)/C(=C/c1ccc(OC)cc1)C(=O)N2Cc1ccccc1	growth	126% (inactive)
COc1ccc(-c2nc(/C=C3\C(=O)N(C)c4ccccc43)c3ccccn23)cc1	growth	85.5% (inactive)
Cc1ccc(-c2nc(N3CCNCC3)c3oc(-c4ccc(C)cc4)nc3n2)cc1	growth	78.4% (inactive)
O=C(CI)NC(=O)NC(=O)NCc1ccccc1	growth	44.3% (inactive)
CNC(=O)c1cc(Oc2cccc3nc(NC(=O)Nc4cc(C(F)(F)F)ccc4Cl)ccc23)ccn1	growth	98.7% (inactive)
C=C(C)[C@@H]1CC[C@]2(C(N)=O)CC[C@]3(C)[C@H](CC[C@@H]4[C@@]5(C)CC[C@H](OCCC#N)C(C)(C)[C@@H]5CC[C@]43C)[C@@H]12	growth	76.3% (inactive)
COc1ccc(/C=C/C(=O)c2cc3c(N)c(C(=O)Nc4cccc(Cl)c4C)sc3nc2C)cc1	growth	27.6% (inactive)
CSc1nc(C)c([N+](=O)[O-])c(N)n1	growth	118% (inactive)
Fc1ccc2[nH]cc(-c3nc(-c4c[nH]c5ccncc45)cs3)c2c1	growth	24.3% (inactive)
CC(=O)ON1CCCC(P(=O)(OCCSC(=O)C(C)(C)C)OCCSC(=O)C(C)(C)C)C1=O (configuration not stated)	growth	89.2% (inactive)
C=CCOC(=O)C1=C(C)N(CC)C(=O)NC1c1c(Cl)n(C)c2ccccc12 (configuration not stated)	growth	90% (inactive)
Cc1ccc(N2C(=O)CCC2=O)cc1	growth	96.3% (inactive)
CC(=O)/C(=C/c1ccc([N+](=O)[O-])cc1)C(=O)c1ccccc1	growth	112% (inactive)
C#COc1cccc(Nc2ncnc3cc(NC(=O)[C@@H](C)Cl)ccc23)c1	growth	25% [6.25 µM] (inactive)
Cc1nn(-c2ccccc2)c(N)c1N=C1NC(=O)/C(=C/c2ccc(Br)cc2)S1	growth	72.7% (inactive)
